The origin of these recorded values is the supplement of paper PMC9694430.

# thermal shift delta Tm per record follows
# Test system: LOC_OS03G50450-cb001;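 further: purified Escherichia coli-expressed rice kinase domain construct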
# assay_details: thermal shift delta Tm vs DMSO control; higher = stronger stabilization (binding)
# measurement_parameters: 12.5 µM; protein concentration 2 µM
// units = °C; emit number, no label

// worked examples, thermal shift delta Tm included
C=CC(=O)Nc1cccc(Nc2nc(Nc3ccc(OCCOC)cc3)ncc2F)c1; 3.26
COc1cccc(-n2c(=O)[nH]c3cc(Cl)n(-c4ccc(-c5cccc(OC)c5O)cc4)c3c2=O)c1; 0.22
COc1nccnc1NS(=O)(=O)c1ccc(NC(=O)/C=C/c2ccc([N+](=O)[O-])s2)cc1 [Necrosulfonamide]; -0.09
CC(C)n1nc(-c2cc3cc(O)ccc3[nH]2)c2c(N)ncnc21 [Torkinib (PP242)]; 0.48
CCCCCCCCCCCCCCCCCCOP(=O)([O-])OC1CC[N+](C)(C)CC1 [Perifosine (KRX-0401)]; -2.45
Nc1cccc(-c2cc3c(Oc4cccc(O)c4)ncnc3[nH]2)c1; 0.38
COc1cc(N2CCC(N3CCN(C)CC3)CC2)ccc1Nc1ncnc(Nc2ccccc2S(=O)(=O)C(C)C)n1; 0.36
COc1cc(OC)c(/C=C/S(=O)(=O)Cc2ccc(OC)c(NCC(=O)O)c2)c(OC)c1; 0.44
COc1ccc2[nH]cc(/C=C3\C(=O)Nc4ccc(NC(=O)CCN5CCCCC5)cc43)c2c1; 0.34
COc1cc(Nc2ncc(F)c(Nc3ccc4c(n3)NC(=O)C(C)(C)O4)n2)cc(OC)c1OC [R406 (free base)]; 8.85

Give its thermal shift delta Tm value. Item: Cc1ccccc1CN1C2=NCCN2C(=O)C2=C1CCN(Cc1ccccc1)C2 [TIC10 Analogue]
0.31

Reported thermal shift delta Tm, compound COc1ccc(COc2ccc(Cc3cnc(N)nc3N)cc2OC)cc1 : ____
0.04

Which thermal shift delta Tm is listed for N[C@@H]1CCCN(c2c(/C=C3\SC(=O)NC3=O)cccc2-c2ccccc2)C1 ?
0.53

Would you kindly share the measured thermal shift delta Tm for Cn1c(Nc2ccc(C(F)(F)F)cc2)nc2cc(Oc3ccnc(-c4ncc(C(F)(F)F)[nH]4)c3)ccc21 ?
1.16

// thermal shift delta Tm lookup, key: Oc1cc(CNC(=S)/C=C/c2cc(O)c(O)c(Br)c2)cc(O)c1O
0.42

Data request, read-out thermal shift delta Tm, for COc1ccc(COc2cc3oc(=O)c4cc(C(C)O)ccc4c3cc2OC)cc1 (stereo not drawn) [Palomid 529 (P529)]
0.19

// thermal shift delta Tm lookup, key: CN1CCN(S(=O)(=O)c2ccc(-c3cnc(N)c(C(=O)Nc4cccnc4)n3)cc2)CC1
0.63

Request the reported thermal shift delta Tm associated with COc1cc2ccc(=O)oc2cc1O [Scopoletin]
0.69
